Data origin, for the record: ChEMBL document CHEMBL1122749

- tested-on: Thymidine phosphorylase (Mus musculus)
- Sequence (Q99N42 whole entry): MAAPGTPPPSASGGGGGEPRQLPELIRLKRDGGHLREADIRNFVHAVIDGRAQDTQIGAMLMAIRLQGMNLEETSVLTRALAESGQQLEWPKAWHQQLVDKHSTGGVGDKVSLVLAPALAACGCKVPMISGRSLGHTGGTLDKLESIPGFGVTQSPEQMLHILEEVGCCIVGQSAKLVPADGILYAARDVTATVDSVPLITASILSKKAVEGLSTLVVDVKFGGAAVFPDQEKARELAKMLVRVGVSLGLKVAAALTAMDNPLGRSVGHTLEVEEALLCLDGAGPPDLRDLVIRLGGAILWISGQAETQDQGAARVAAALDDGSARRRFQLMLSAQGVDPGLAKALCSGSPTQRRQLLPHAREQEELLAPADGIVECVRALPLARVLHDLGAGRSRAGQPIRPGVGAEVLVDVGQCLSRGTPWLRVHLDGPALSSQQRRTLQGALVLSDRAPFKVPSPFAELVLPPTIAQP
- assay-text: In vitro non-competitive inhibition of cleavage of Thymidine (dThd) phosphorylase isolated from Lewis lung carcinoma.
quantity-measured: Ki (µM)
Give bare numbers, in µM.

**Q:** What value of measured Ki is listed for O=c1[nH]c(=O)n([C@H]2C[C@H](F)[C@@H](CO)O2)cc1F ?
**A:** 1700

----------
- assay-text: Apparent rate constant Koff for inactivation of dTMP synthase.
quantity-measured: K off (s⁻¹)
One number for each entry, in s⁻¹.

**Q:** Which K off reading was recorded for the compound O=c1[nH]c(=O)n(C2CC(F)C(COP(=O)(O)O)O2)cc1F (stereo unspecified) ?
**A:** 0.000233

----------
- System: L1210
- assay-text: In vitro concentration required for 50% inhibition (IC50) of growth of L1210 mouse leukemia cells in culture.
- Type: functional, cell-based
quantity-measured: IC50 (nM)
Give bare numbers, in nM.

**Q:** Please report the recorded IC50 for O=c1[nH]c(=O)n([C@H]2C[C@H](O)[C@@H](CO)O2)cc1F [FLOXURIDINE] .
**A:** 0.5
